Data origin, for the record: PubChem BioAssay AID330

Give T/C for every item shown.
# Tested on: P388 leukemia ip, CD2F1 mice, survival T/C
# Procedure text: NCI In Vivo Anticancer Drug Screen. Data for tumor model P388 Leukemia (intraperitoneal) in CD2F1 (CDF1) mice
# Condition info: endpoint: median survival time; dose: 50.0 mg/kg/injection; schedule: Q01DX009 (ip); vehicle: saline; higher = longer survival
Inconclusive results and toxic doses are left out.

Example entries and their recorded answers appear below.
1) Oc1c(CN2CCCC2)cc(Nc2nccc(/C=C/c3ccc(Cl)cc3)n2)cc1CN1CCCC1
114 % of control
2) O=C(O)CN(CC(=O)O)C1CC1N(CC(=O)O)CC(=O)O (centres undefined)
97 % of control
3) CCCSCN(CC)CC
95 % of control

Read the next record carefully.
Input: Would you kindly share the measured T/C for `S=c1s[nH]c2c1CCC2` ?
Output: 105 % of control
